Source: paper PMC3834177

test description: Midostaurin PK when administered with rifampicin
settings: human, plasma, oral, t 1/2, adjusted geometric mean, plasma; Rifampicin + midostaurin arm, n = 20
quantity kind: half-life (h)
Give the value, in units of h, as a plain number.

>>> observed_measurement("CO[C@@H]1[C@H](N(C)C(=O)c2ccccc2)C[C@H]2O[C@]1(C)n1c3ccccc3c3c4c(c5c6ccccc6n2c5c31)C(=O)NC4 [Midostaurin]")
5.14

Could you now consider this next compound?
IN: Endpoint output: half-life of CO[C@@H]1[C@H](N(C)C(=O)c2ccccc2)C[C@H]2O[C@]1(C)n1c3ccccc3c3c4c(c5c6ccccc6n2c5c31)C(=O)NC4O (mixture of isomers) [CGP52421] . Value?
OUT: 87.1
